Source listed as paper PMC6930675.

TESTED_TARGET: IDO1 (SKOV3 cells) (Homo sapiens)
Construct: identify cell lines endogenously expressing only IDO1, only TDO2, and both enzymes simultaneously; endogenous in cells
Sequence (P14902 whole entry): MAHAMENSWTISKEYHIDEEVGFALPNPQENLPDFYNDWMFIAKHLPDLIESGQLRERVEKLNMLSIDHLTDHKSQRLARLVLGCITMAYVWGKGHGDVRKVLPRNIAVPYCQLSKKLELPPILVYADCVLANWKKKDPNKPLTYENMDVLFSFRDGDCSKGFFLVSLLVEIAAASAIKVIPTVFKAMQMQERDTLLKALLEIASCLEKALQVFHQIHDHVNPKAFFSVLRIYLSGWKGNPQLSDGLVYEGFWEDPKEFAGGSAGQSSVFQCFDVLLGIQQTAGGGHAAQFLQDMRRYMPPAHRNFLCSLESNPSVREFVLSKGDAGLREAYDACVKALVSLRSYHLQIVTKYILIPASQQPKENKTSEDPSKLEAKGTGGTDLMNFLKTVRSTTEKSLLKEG
METHOD_DESCRIPTION: Cell based kynurenine assay in SKOV3 ovarian line (IDO1 expressor)
ASSAY_CONDITIONS: SKOV3 (IDO1), 18 h; read-out: IC50, inhibition of kynurenine secretion
OBSERVABLE: IC50 (µM)

SMILES_ENTRY	TESTED_TARGET	UNIT_STRING	EXPERIMENTAL_RESULT
Cc1ccc(C(=O)CC(=O)c2ccccc2OC(C)C)c(O)c1	IDO1 (SKOV3 cells) (Homo sapiens)	µM	28.9
